- Test system: DU-145
- TEST_METHOD_NOTES: Antiproliferative activity against androgen-insensitive human DU-145 cells assessed as reduction in cell viability incubated for 3 days by WST-1 assay
- Assay type: functional, cell-based
- CONDITION_SUMMARY: DU-145, 72 h
RESULT_TYPE: IC50 (µM)
Write it as a number; the unit µM goes unstated.

Report IC50 for COc1ccc(COC[C@H]2C/C(C)=C/COCC/C=C/C(=O)C/C(C)=C\C=C\C(=O)N2)cc1 tested on DU-145.
4.87

Param item: C/C1=C/C=C/C(=O)N[C@@H](C=O)C/C(C)=C/COCC/C=C/C(=O)C1
8.48

Param item: C/C1=C/C=C/C(=O)N[C@@H](CO)C/C(C)=C/COCC/C=C/C(=O)C1
11.1
